Data origin, for the record: paper PMC4335872

- ASSAY METHOD TEXT: In vivo PK after single p.o. and i.v. dosing in CD-1 mice
- Set-up: species or system female CD-1 mice
- ASSAY CONTEXT: female, mouse, plasma; oral 105 mg/kg, CD-1 mice, HCl/Solutol HS15/citrate pH 3 formulation; read-out: t1/2 (oral) (converted)
- Method: The Institutional Animal Care and Use Committee (IACUC) of the Novartis Institute for Tropical Diseases (NITD), registered with the Agri-Food and Veterinary authority (AVA), Government of Singapore, reviewed and approved all animal experimental protocols. […] After vortexing and centrifuging the mixture, the supernatant was removed and 5 μl of sample analyzed. Analyte quantitation was performed by high-performance liquid chromatography coupled with tandem mass spectrometry (LC-MS/MS). […]
VALUE TYPE: half-life
Please answer using the number first and the unit second.

Fill in the blank: the reported half-life of C[C@H]1Cc2c([nH]c3cc(Cl)c(F)cc23)[C@@]2(N1)C(=O)Nc1ccc(Cl)cc12 [(+)-7 (KAE609)] is ____.
9.4 h

---

- ASSAY METHOD TEXT: In vivo PK after single p.o. and i.v. dosing in CD-1 mice
- Parameters: species or system female CD-1 mice
- ASSAY CONTEXT: female, mouse, plasma; oral 105 mg/kg, CD-1 mice, HCl/Solutol HS15/citrate pH 3 formulation; read-out: Tmax
VALUE TYPE: Tmax (h)
Numbers only, in h.

Fill in the blank: the reported Tmax of C[C@H]1Cc2c([nH]c3cc(Cl)c(F)cc23)[C@@]2(N1)C(=O)Nc1ccc(Cl)cc12 [(+)-7 (KAE609)] is ____.
24

---

- ASSAY METHOD TEXT: In vivo PK after single p.o. and i.v. dosing in CD-1 mice
- Set-up: species or system female CD-1 mice
- ASSAY CONTEXT: female, mouse, plasma; oral 5.6 mg/kg, CD-1 mice, HCl/Solutol HS15/citrate pH 3 formulation; read-out: t1/2 (oral) (converted)
- Protocol: The Institutional Animal Care and Use Committee (IACUC) of the Novartis Institute for Tropical Diseases (NITD), registered with the Agri-Food and Veterinary authority (AVA), Government of Singapore, reviewed and approved all animal experimental protocols. […] After vortexing and centrifuging the mixture, the supernatant was removed and 5 μl of sample analyzed. Analyte quantitation was performed by high-performance liquid chromatography coupled with tandem mass spectrometry (LC-MS/MS). […]
VALUE TYPE: half-life (h)
One number for each entry, in h.

Fill in the blank: the reported half-life of C[C@H]1Cc2c([nH]c3cc(Cl)c(F)cc23)[C@@]2(N1)C(=O)Nc1ccc(Cl)cc12 [(+)-7 (KAE609)] is ____.
7.5

---

- ASSAY METHOD TEXT: In vivo PK after single p.o. and i.v. dosing in CD-1 mice
- Design: species or system female CD-1 mice
- ASSAY CONTEXT: i.v. 5 mg/kg, CD-1 mice
- Experimental: The Institutional Animal Care and Use Committee (IACUC) of the Novartis Institute for Tropical Diseases (NITD), registered with the Agri-Food and Veterinary authority (AVA), Government of Singapore, reviewed and approved all animal experimental protocols. […] After vortexing and centrifuging the mixture, the supernatant was removed and 5 μl of sample analyzed. Analyte quantitation was performed by high-performance liquid chromatography coupled with tandem mass spectrometry (LC-MS/MS). […]
VALUE TYPE: t1/2 (i.v.) (h)
Give bare numbers, in h.

C[C@@H]1Cc2c([nH]c3cc(Cl)c(F)cc23)[C@]2(N1)C(=O)Nc1ccc(Cl)cc12 [(−)-7]; 5.6

Please give t1/2 (i.v.), item by item, for the list that follows.
1. C[C@H]1Cc2c([nH]c3ccccc23)[C@@]2(N1)C(=O)Nc1ccc(Cl)cc12 [(+)-1]
2. C[C@H]1Cc2c([nH]c3ccc(F)cc23)[C@@]2(N1)C(=O)Nc1ccc(Cl)cc12 [(+)-4]
3. C[C@H]1Cc2c([nH]c3cc(F)ccc23)[C@@]2(N1)C(=O)Nc1ccc(Cl)cc12 [(+)-5]
4. C[C@@H]1Cc2c([nH]c3cc(F)c(F)cc23)[C@]2(N1)C(=O)Nc1ccc(Cl)cc12 [(−)-6]
5. C[C@H]1Cc2c([nH]c3cc(Cl)ccc23)[C@@]2(N1)C(=O)Nc1ccc(Cl)cc12 [(+)-3]

1: 0.4; 2: 4.7; 3: 3.8; 4: 13.2; 5: 4.3

Please give t1/2 (i.v.), item by item, for the list that follows.
1. C[C@H]1Cc2c([nH]c3cc(F)c(F)cc23)[C@@]2(N1)C(=O)Nc1ccc(Cl)cc12 [(+)-6]
2. C[C@H]1Cc2c([nH]c3ccc(Cl)cc23)[C@@]2(N1)C(=O)Nc1ccc(Cl)cc12 [(+)-2]

2.9
4.6

---

- ASSAY METHOD TEXT: In vivo PK after single p.o. and i.v. dosing in CD-1 mice
- Set-up: species or system female CD-1 mice
- ASSAY CONTEXT: i.v. 5 mg/kg, CD-1 mice
VALUE TYPE: CL
Please answer using the number first and the unit second.

Below: 3 molecules and their reported CL.
C[C@H]1Cc2c([nH]c3cc(Cl)ccc23)[C@@]2(N1)C(=O)Nc1ccc(Cl)cc12 [(+)-3]; 60.1 mL/min/kg
C[C@H]1Cc2c([nH]c3cc(Cl)c(F)cc23)[C@@]2(N1)C(=O)Nc1ccc(Cl)cc12 [(+)-7 (KAE609)]; 9.7 mL/min/kg
C[C@H]1Cc2c([nH]c3ccccc23)[C@@]2(N1)C(=O)Nc1ccc(Cl)cc12 [(+)-1]; 49.7 mL/min/kg

Please give CL, item by item, for the list that follows.
1. C[C@@H]1Cc2c([nH]c3cc(F)c(F)cc23)[C@]2(N1)C(=O)Nc1ccc(Cl)cc12 [(−)-6]
2. C[C@H]1Cc2c([nH]c3cc(F)c(F)cc23)[C@@]2(N1)C(=O)Nc1ccc(Cl)cc12 [(+)-6]

1. 4.2 mL/min/kg
2. 8.5 mL/min/kg

---

- ASSAY METHOD TEXT: In vivo PK after single p.o. and i.v. dosing in CD-1 mice
- Set-up: species or system female CD-1 mice
- ASSAY CONTEXT: oral 25 mg/kg vs i.v. 5 mg/kg, CD-1 mice
- Method: The Institutional Animal Care and Use Committee (IACUC) of the Novartis Institute for Tropical Diseases (NITD), registered with the Agri-Food and Veterinary authority (AVA), Government of Singapore, reviewed and approved all animal experimental protocols. […] After vortexing and centrifuging the mixture, the supernatant was removed and 5 μl of sample analyzed. Analyte quantitation was performed by high-performance liquid chromatography coupled with tandem mass spectrometry (LC-MS/MS). […]
Kindly state F (oral bioavailability) for each of the entries shown.

Below: 3 compounds and their reported F (oral bioavailability).
C[C@@H]1Cc2c([nH]c3cc(Cl)c(F)cc23)[C@]2(N1)C(=O)Nc1ccc(Cl)cc12 [(−)-7]; 92%
C[C@H]1Cc2c([nH]c3ccccc23)[C@@]2(N1)C(=O)Nc1ccc(Cl)cc12 [(+)-1]; 13%
C[C@@H]1Cc2c([nH]c3cc(F)c(F)cc23)[C@]2(N1)C(=O)Nc1ccc(Cl)cc12 [(−)-6]; 78%

Okay, now this compound:
Fill in the blank: the reported F (oral bioavailability) of C[C@H]1Cc2c([nH]c3cc(F)c(F)cc23)[C@@]2(N1)C(=O)Nc1ccc(Cl)cc12 [(+)-6] is ____.
53%

---

- ASSAY METHOD TEXT: In vivo PK after single p.o. and i.v. dosing in CD-1 mice
- Set-up: species or system female CD-1 mice
- ASSAY CONTEXT: single oral dose 25 mg/kg, CD-1 mice
VALUE TYPE: Tmax (h)
Numbers only, in h.

Below: 5 molecules and their reported Tmax.
C[C@H]1Cc2c([nH]c3ccc(Cl)cc23)[C@@]2(N1)C(=O)Nc1ccc(Cl)cc12 [(+)-2]; 1
C[C@H]1Cc2c([nH]c3cc(F)c(F)cc23)[C@@]2(N1)C(=O)Nc1ccc(Cl)cc12 [(+)-6]; 2
C[C@@H]1Cc2c([nH]c3cc(Cl)c(F)cc23)[C@]2(N1)C(=O)Nc1ccc(Cl)cc12 [(−)-7]; 1
C[C@H]1Cc2c([nH]c3cc(F)ccc23)[C@@]2(N1)C(=O)Nc1ccc(Cl)cc12 [(+)-5]; 0.25
C[C@@H]1Cc2c([nH]c3cc(F)c(F)cc23)[C@]2(N1)C(=O)Nc1ccc(Cl)cc12 [(−)-6]; 2

Please give Tmax, item by item, for the list that follows.
1. C[C@H]1Cc2c([nH]c3ccc(F)cc23)[C@@]2(N1)C(=O)Nc1ccc(Cl)cc12 [(+)-4]
2. C[C@H]1Cc2c([nH]c3ccccc23)[C@@]2(N1)C(=O)Nc1ccc(Cl)cc12 [(+)-1]
3. C[C@H]1Cc2c([nH]c3cc(Cl)ccc23)[C@@]2(N1)C(=O)Nc1ccc(Cl)cc12 [(+)-3]

1. 0.25
2. 0.25
3. 2
